biological target: 11β-HSD1 (Homo sapiens, UniProt P28845); conditions: read-out: IC50 Range
Sequence (P28845 whole entry): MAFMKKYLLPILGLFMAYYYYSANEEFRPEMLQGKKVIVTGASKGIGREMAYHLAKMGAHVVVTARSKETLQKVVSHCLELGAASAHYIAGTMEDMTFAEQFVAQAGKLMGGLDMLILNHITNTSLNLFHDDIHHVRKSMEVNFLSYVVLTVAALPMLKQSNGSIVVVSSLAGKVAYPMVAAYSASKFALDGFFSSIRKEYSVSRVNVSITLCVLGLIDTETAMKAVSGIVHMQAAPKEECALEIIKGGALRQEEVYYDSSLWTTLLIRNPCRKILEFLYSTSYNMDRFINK
measurement type: IC50

Solved cases below.
substance	system	IC50
3-((S)-1-(2′,4′-difluorobiphenyl-4-yl)ethyl)-6-(2-hydroxyethyl)-6-isopropyl-1,3-oxazinan-2-one [EXAMPLE 207 Isomer 2]	11β-HSD1 (Homo sapiens, UniProt P28845)	< 100 nM
3-((S)-1-(2′,4′-difluorobiphenyl-4-yl)ethyl)-6-(2-hydroxyethyl)-6-isopropyl-1,3-oxazinan-2-one [EXAMPLE 207 Isomer 1]	11β-HSD1 (Homo sapiens, UniProt P28845)	< 100 nM

Next substance, please.
### Prompt Note down IC50 recorded for (S)-6-(3-hydroxypropyl)-3-((S)-1-(4-methoxyphenyl)ethyl)-6-phenyl-1,3-oxazinan-2-one [EXAMPLE 282 Isomer 2]
### Response < 100 nM

* * *

molecular target: UniProt P28845; test: biochemical; conditions: read-out: Average % inhibition at 111.1 nM, Biological Test Example 1; 111.1 nM
measurement type: inhibition at 0.1111 µM (%)

structure string	inhibition at 0.1111 µM / %
NC(=O)c1ccc(N2CCC[C@H](N3CC[C@](CCCO)(c4ccc(F)cc4)OC3=O)C2)nc1	77
Cc1cc(-c2ccc([C@H](C)N3CC[C@](CC(C)(C)O)(c4ccc(F)cc4)OC3=O)cc2)ccn1	99.4

[a] Cc1cc(-c2ccc([C@H](C)N3CC[C@](CC(C)(C)O)(c4ccc(F)cc4)OC3=O)cc2)cc(C)[n+]1[O-]
[b] C[C@@H](c1ccc(S(C)(=O)=O)cc1)N1CC[C@](CCO)(c2ccc(F)cc2)OC1=O
### Prompt Lower inhibition at 0.1111 µM: a or b ? Your answer should be the label of the entry you select.
### Response b
(b: 8.6%, a: 89.7%)

* * *

molecular target: 11β-HSD1 (Homo sapiens, UniProt P28845); experiment: biochemical; settings: IC50 Range, Biological Test Example 1; microsomes from CHO cells overexpressing human 11β-HSD1
IC50 overview

Solved cases (8 shown):
compound	system	test result
Cc1ccc([C@H](C)N2CC[C@](CC(C)(C)O)(c3ccc(F)cc3)OC2=O)cc1 [EXAMPLE 417]	11β-HSD1 (Homo sapiens, UniProt P28845)	< 100 nM
CC(C)(O)CC1(c2ccccc2)CCN(c2cccc(-c3ccc(F)cc3F)c2)C(=O)O1 (stereo not drawn) [EXAMPLE 117]	11β-HSD1 (Homo sapiens, UniProt P28845)	< 100 nM
CC(=O)NC(C)(C)C[C@]1(c2ccc(F)cc2)CCN([C@@H](C)c2ccc(Br)cc2)C(=O)O1 [EXAMPLE 626]	11β-HSD1 (Homo sapiens, UniProt P28845)	< 100 nM
C=CC[C@@]1(c2ccc(F)cc2)CCN([C@H](C)c2ccc(Cl)c(F)c2)C(=O)O1 (single isomer, unassigned) [EXAMPLE 497 Isomer 3]	11β-HSD1 (Homo sapiens, UniProt P28845)	> 100 nM
C[C@@H](c1ccc(-c2ccc(CN)cc2)cc1)N1CC[C@](CCCO)(c2ccccc2)OC1=O [EXAMPLE 495]	11β-HSD1 (Homo sapiens, UniProt P28845)	< 100 nM
O=C1OC(CCCO)(c2ccc(F)cc2)CCN1Cc1c(Cl)cccc1Cl (stereo not drawn) [EXAMPLE 347]	11β-HSD1 (Homo sapiens, UniProt P28845)	< 100 nM
COC(=O)c1ccccc1CN1CC[C@](CCCO)(c2ccc(F)cc2)OC1=O [EXAMPLE 352]	11β-HSD1 (Homo sapiens, UniProt P28845)	< 100 nM
CC(C)(C)OC(=O)N1CCC(N2CCC(CCCO)(c3ccccc3)OC2=O)C1 (single isomer, unassigned) [EXAMPLE 208 Isomer 4]	11β-HSD1 (Homo sapiens, UniProt P28845)	< 100 nM

### Prompt Answer with reported IC50 of C[C@@H](c1ccc(C(F)(F)F)cc1)N1CC[C@](CCCO)(c2ccccc2)OC1=O [EXAMPLE 532]
### Response < 100 nM

### Prompt Kindly indicate its recorded IC50. Item: C[C@@H](c1ccc(-c2ccc(F)cc2F)cc1)N1CC[C@](CCC(=O)O)(c2ccccc2)OC1=O [EXAMPLE 503]
### Response < 100 nM
